Data origin: patent US10273267B2

- Target entity: porcine pancreatic elastase (Sus scrofa, UniProt P00772)
- Sequence (P00772 27-266): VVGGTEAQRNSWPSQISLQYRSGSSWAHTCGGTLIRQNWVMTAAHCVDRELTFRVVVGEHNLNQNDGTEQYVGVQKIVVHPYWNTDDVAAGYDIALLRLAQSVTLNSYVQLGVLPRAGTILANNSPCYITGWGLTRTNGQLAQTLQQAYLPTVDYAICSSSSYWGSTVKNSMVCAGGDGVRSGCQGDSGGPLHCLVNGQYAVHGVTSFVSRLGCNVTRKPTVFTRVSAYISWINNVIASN
Where a SMILES comes first, the peptide text is derived from it. [ ]: non-standard residue; d: D form. Gly(octyl) = CCCCCCCC[C@H](N)C(=O)O; Dap = NC[C@H](N)C(=O)O; Nlys = NCCCCNCC(=O)O
Field: pIC50. Provide a value for each of the compounds that follow.
The meaning of pIC50 here: minus log10 of the concentration in molar units.

Query block: For CCCCCCCC[C@@H]1NC(=O)[C@@H]2CCCN2C(=O)[C@H]2CCCN2C(=O)[C@H](Cc2ccc(O)cc2)NC(=O)[C@H](CCCCN)NC(=O)[C@H](CCC(N)=O)NC(=O)[C@@H]2CCCN2C(=O)[C@@H]2CCCN2C(=O)[C@H]([C@@H](C)CC)NC(=O)[C@H](CO)NC(=O)[C@H](C)NC(=O)[C@H]([C@@H](C)O)NC(=O)[C@H](CNC(=O)[C@@H](N)Cc2ccccc2)NC1=O [Example 14] (cyclo([Gly(octyl)][Dap](Phe)TASIPPQKY[dP]P)) , write its pIC50.
Result block: 5.26

Query block: For CCCCCCCC[C@@H]1NC(=O)[C@@H]2CCCN2C(=O)[C@H]2CCCN2C(=O)[C@H]([C@@H](C)O)NC(=O)[C@H](CCCCN)NC(=O)[C@H](CCC(N)=O)NC(=O)[C@@H]2CCCN2C(=O)CN(CCCCN)C(=O)[C@H]([C@@H](C)CC)NC(=O)[C@H](CO)NC(=O)[C@H](C)NC(=O)[C@H]([C@@H](C)O)NC(=O)[C@H](CCC(=O)O)NC1=O [Example 33] (cyclo([Gly(octyl)]ETASI[Nlys]PQKT[dP]P)) , write its pIC50.
Result block: 5.08

###

- Target entity: human proteinase 3 (Homo sapiens)
- Construct: purchased Elastin Products Company, USA
- Sequence (P24158 28-248): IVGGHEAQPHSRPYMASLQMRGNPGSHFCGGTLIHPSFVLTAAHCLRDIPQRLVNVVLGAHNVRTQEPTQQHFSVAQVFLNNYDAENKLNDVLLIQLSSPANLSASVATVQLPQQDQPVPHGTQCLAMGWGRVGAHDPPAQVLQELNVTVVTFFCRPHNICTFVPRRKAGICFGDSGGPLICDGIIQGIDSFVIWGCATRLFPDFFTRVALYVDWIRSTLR
- Assay comment: Inhibition of human proteinase 3 (substrate Boc-Ala-Ala-Nva-SBzl)
- Type: biochemical
- Measurement setup: ratio of hPr3 IC50 to hNE IC50
*1 amine or outer side, *2 acyl side, *3 side chain or, on linkers, in order; H or OH if unused. Where a SMILES comes first, the peptide text is derived from it. [ ]: non-standard residue; d: D form. X3 = O=C(CC[C@H](Cc1ccc(O)cc1)N[*:1])[*:2]; Gly(octyl) = CCCCCCCC[C@H](N)C(=O)O; N(CH2CH2COOH)Gly = O=C(O)CCNCC(=O)O
Field: hNE/hPr3 selectivity. Provide a value for each of the molecules that follow.
Reply with the value as a number alone.

Query block: For CCCCCCCC[C@@H]1NC(=O)[C@@H]2CCCN2C(=O)[C@H]2CCCN2C(=O)[C@H]([C@@H](C)O)NC(=O)[C@H](CCCCN)NC(=O)[C@H](CCC(N)=O)NC(=O)CN(CCC(=O)O)C(=O)[C@@H]2CCCN2C(=O)[C@H]([C@@H](C)CC)NC(=O)[C@H](CO)NC(=O)[C@H](C)NC(=O)[C@H]([C@@H](C)O)NC(=O)[C@H](CCC(=O)O)NC1=O [Example 34] (cyclo([Gly(octyl)]ETASIP[N(CH2CH2COOH)Gly]QKT[dP]P)) , write its hNE/hPr3 selectivity.
Result block: 172

Query block: For CCCCCCCC[C@@H]1NC(=O)[C@@H]2CCCN2C(=O)[C@H]2CCCN2C(=O)CC[C@H](Cc2ccc(O)cc2)NC(=O)[C@H](CCCCN)NC(=O)[C@H](CCC(N)=O)NC(=O)[C@@H]2CCCN2C(=O)[C@@H]2CCCN2C(=O)[C@H]([C@@H](C)CC)NC(=O)[C@H](CO)NC(=O)[C@H](C)NC(=O)[C@H]([C@@H](C)O)NC(=O)[C@H](CCC(=O)O)NC1=O [Example 8] (cyclo([Gly(octyl)]ETASIPPQK[X3][dP]P)) , write its hNE/hPr3 selectivity.
Result block: 168

Query block: For CCCCCCCC[C@@H]1NC(=O)[C@H](C(C)C)NC(=O)[C@@H](CCCCN)NC(=O)[C@H]([C@@H](C)O)NC(=O)[C@H](CCCCN)NC(=O)[C@H](CCC(N)=O)NC(=O)[C@@H]2CCCN2C(=O)[C@@H]2CCCN2C(=O)[C@H]([C@@H](C)CC)NC(=O)[C@H](CO)NC(=O)[C@H](C)NC(=O)[C@H]([C@@H](C)O)NC(=O)[C@H](CCC(=O)O)NC1=O [Example 26] (cyclo([Gly(octyl)]ETASIPPQKT[dK]V)) , write its hNE/hPr3 selectivity.
Result block: 472
